B1: TFE3 (parent)
chain: FHLGLEDILMEEEEGVVGGLSGGA

Variants of: B1
test: protein stability index of a GFP-peptide fusion (GPS, HEK-293T) (PSI 1-6); higher = more stable;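 further: lentivirally expressed fusions sorted by FACS into six bins by GFP to DsRed ratio, PSI derived from sequencing read proportions per bin multiplied by bin number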
condition.set: c terminus: a fixed tail appended
I'd be grateful if you could share measured protein stability index for these entries.
Numbers only.

Solved entries:
mutant_code=G19A endpoint_result=3.97
mutant_code=M10N endpoint_result=3.23
mutant_code=H2N endpoint_result=4.84
mutant_code=V17R endpoint_result=3.8

I need protein stability index for every entry listed below, if you could help.
1. S21P
2. V16S
3. G22A
4. G19K
5. M10P
6. I8D
7. D7R

Response given:
1. 3.35
2. 3.82
3. 3.81
4. 3.34
5. 4.18
6. 4.59
7. 2.16
